Tested on: WPMY1-CANX-COX4
assayMethodText: phenotypically active (imaging signature differs from DMSO and reproducible) at any of 0.3-9 uM (binary (1 = active, 0 = inactive)); higher = active
conditionDetails: treatment time: 24 h
Structures can show the parent of a compound that is named as a salt.
Below, each of the compounds is paired with its reported phenotypically active value.
reportedProperty: phenotypically active

compound="O=C(CCCCCCC(=O)Nc1cccnc1)NO [Pyroxamide]" recordedvalue=1
compound="COc1cc2c(cc1OC)-c1c/c(=N/c3c(C)cc(C)cc3C)n(C)c(=O)n1CC2 [Trequinsin hydrochloride]" recordedvalue=1
compound="COc1cc(O)c2c(c1C1CCCN1)OC(c1ccc(O)cc1)CC2 (centres undefined) [Vochysine (4 dia/énantio)]" recordedvalue=0
compound="CNC1CCC2(C)C(=CCC3C2CCC24CN(C)C(C)C2CCC34)C1 (centres undefined) [Isoconessimine]" recordedvalue=1

###

Tested on: WPMY1-TUBA1B-RELA
assayMethodText: phenotypically active (imaging signature differs from DMSO and reproducible) at any of 0.3-9 uM (binary (1 = active, 0 = inactive)); higher = active
conditionDetails: treatment time: 24 h
Where a name gives a salt, the structure may show the parent alone.
Possible outcomes: active, inactive

compound="NC(=O)c1cccnc1 [Nicotinamide]" cat=inactive
compound="OC[C@H]1O[C@@H](n2cnc3c(NCc4ccco4)ncnc32)[C@H](O)[C@@H]1O [Kinetin riboside]" cat=active
compound="CCCC(=O)O [Sodium butyrate]" cat=inactive
compound=CCOc1cc(N2CCC(O)CC2)ccc1Nc1ncc2c(n1)N(C)c1ccccc1C(=O)N2C cat=active
compound=O=S(=O)(N[C@H](CO)C(C(F)(F)F)C(F)(F)F)c1ccc(Cl)s1 cat=inactive
compound=COc1cc(/C=C/C(=O)N2CCC=CC2=O)cc(OC)c1OC cat=active
compound="C[n+]1cccc(C(=O)O)c1 [Trigonelline hydrochloride]" cat=inactive
compound=CCN(CC)CCOC(=O)C1(C2CCCCC2)CCCCC1 cat=inactive
compound=CC1(C)CC(=O)c2c(S(C)(=O)=O)sc(Cl)c2C1 cat=inactive
compound="CCCC(=O)Nc1ncnc2c1ncn2[C@@H]1O[C@@H]2COP(=O)(O)O[C@H]2[C@H]1OC(=O)CCC [Dibutyryl-cAMP, sodium salt]" cat=inactive

###

The entries below are paired with their reported phenotypically active.
Tested on: HepG2-GM130-SQSTM1
assayMethodText: phenotypically active (imaging signature differs from DMSO and reproducible) at any of 0.3-9 uM (binary (1 = active, 0 = inactive)); higher = active
conditionDetails: treatment time: 24 h
reportedProperty: phenotypically active

molecule="CCCCCCCN(CC)CCCC(O)c1ccc(NS(C)(=O)=O)cc1 (stereo unspecified) [ibutilide]" recordedvalue=0
molecule="CCCC(=O)O [Sodium butyrate]" recordedvalue=0
molecule=NS(=O)(=O)C#Cc1ccccc1 recordedvalue=1
molecule="CN(C)CCOC(=O)C(c1ccccc1)C1(O)CCCC1 (stereo unspecified) [cyclopentolate]" recordedvalue=0
molecule=CN1CCN([C@H]2CC[C@H](n3cc(-c4ccc(Oc5ccccc5)cc4)c4c(N)ncnc43)CC2)CC1 recordedvalue=1
molecule=O=C1CCc2cc(OCCCCc3nnnn3C3CCCCC3)ccc2N1 recordedvalue=0
molecule=COC(=O)Nc1nc2ccc(C(=O)c3cccs3)cc2[nH]1 recordedvalue=1
molecule=O=C1Cc2cc(CCN3CCN(c4nsc5ccccc45)CC3)c(Cl)cc2N1 recordedvalue=1
molecule="CCCCC(=O)O[C@H]1CC[C@H]2[C@@H]3CCc4cc(O)ccc4[C@H]3CC[C@]12C [estradiol valerate]" recordedvalue=0
molecule="CN1CCc2cccc3c2[C@H]1Cc1ccc(O)c(O)c1-3 [r(-)-apomorphine]" recordedvalue=0
molecule="O=C(O)CCc1ccccc1 [Hydrocinnamic acid]" recordedvalue=0
